assay target: human DGKα (Homo sapiens (Human))
Sequence (P23743 other isoform, or with tags, fused parts or gaps): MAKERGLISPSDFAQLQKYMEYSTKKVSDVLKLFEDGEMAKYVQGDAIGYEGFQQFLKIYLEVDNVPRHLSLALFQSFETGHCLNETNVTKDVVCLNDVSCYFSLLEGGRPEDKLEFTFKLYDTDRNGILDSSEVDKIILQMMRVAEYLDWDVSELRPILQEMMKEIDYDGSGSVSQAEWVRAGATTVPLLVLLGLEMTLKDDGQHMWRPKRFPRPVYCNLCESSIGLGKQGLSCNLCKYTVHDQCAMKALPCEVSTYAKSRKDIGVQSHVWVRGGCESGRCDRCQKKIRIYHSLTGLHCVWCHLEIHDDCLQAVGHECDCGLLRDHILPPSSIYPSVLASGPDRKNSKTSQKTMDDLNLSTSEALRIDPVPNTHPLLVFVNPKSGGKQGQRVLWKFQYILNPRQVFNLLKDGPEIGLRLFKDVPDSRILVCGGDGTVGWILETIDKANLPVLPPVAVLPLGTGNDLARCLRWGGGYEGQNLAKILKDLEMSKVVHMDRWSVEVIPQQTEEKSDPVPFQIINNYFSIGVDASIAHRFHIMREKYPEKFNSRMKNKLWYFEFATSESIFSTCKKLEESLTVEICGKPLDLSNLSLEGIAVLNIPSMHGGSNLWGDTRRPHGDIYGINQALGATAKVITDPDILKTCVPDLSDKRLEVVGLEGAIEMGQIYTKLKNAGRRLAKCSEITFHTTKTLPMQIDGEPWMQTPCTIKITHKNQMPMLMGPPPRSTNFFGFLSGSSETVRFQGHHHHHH
protocol: DGKα LIPGLO assay (extruded liposome substrate)
Type: biochemical
pIC50: −log10 of the molar value.
Label true (1) when pIC50 is at or above 6; anything below gets false (0).

> print(dat)
                                   compound      group
1  COc1ccc2c(n1)c(N1CCN(C(c3ccc(F)cc3)c3ccccn3)CC1)c(C#N)c(=O)n2C (stereo not drawn)  false (0)
2  Cn1c(=O)c(C#N)c(N2CCN(C(CC(C)(C)C)c3ccc(F)cc3)CC2)c2nc(Cl)ccc21 (single isomer, unassigned) [Example 377]  false (0)
3  Cc1cccc(O)c1CN1CCN(c2c(C#N)c(=O)n(C)c3ccc(Br)nc23)CC1   true (1)
4  Cn1c(=O)c(C#N)c(N2CCN(Cc3c(O)cccc3Br)CC2)c2nc(Cl)ccc21  false (0)
5  Cc1ccc(CN2CCN(c3c(C#N)c(=O)n(C)c4ccc(Br)nc34)CC2)c(O)c1   true (1)
6  Cn1c(=O)c(C#N)c(N2CCN(C(c3ccccc3)c3ccc(Cl)cc3)CC2)c2nc(Br)ccc21 (racemic)  false (0)

---

assay target: human DGKα (Homo sapiens (Human))
protocol: DGKα LIPGLO assay (extruded liposome substrate)
Assay type: biochemical
Measured log10 of IC50 by item
metric: log10 of IC50 (log10 of the value in µM)

compound	log10 of IC50
CCC(c1ccc(F)cc1)N1CCN(c2c(C#N)c(=O)n(CC#N)c3ccc(Br)nc23)CC1 (centres unmarked) [Example 155]	1.85
Cn1c(=O)c(C#N)c(N2CCN(C(c3ccc(F)cc3)C3CC3)CC2)c2nc(Br)ccc21 (centres unmarked) [Example 35]	0.00
Cn1c(=O)c(C#N)c(N2CCN(Cc3ccccc3Cl)CC2)c2nc(Br)ccc21 [Example 300]	1.38
CCC(c1ccc(F)cc1)N1CCN(c2c([N+](=O)[O-])c(=O)n(C)c3ccc(C#N)nc23)CC1 (single isomer, unassigned) [Example 34]	-0.54
Cn1c(=O)c([N+](=O)[O-])c(N2CCN(CC(O)c3ccc(F)cc3)CC2)c2nc(C#N)ccc21 (centres unmarked) [Example 36]	0.83
Cn1c(=O)c([N+](=O)[O-])c(N2CCN(C(c3ccc(F)cc3)C3CC3)CC2)c2nc(C#N)ccc21 (single isomer, unassigned) [Example 50]	0.32
Cc1cccc(Cl)c1CN1CCN(c2c(C#N)c(=O)n(C)c3ccc(Cl)nc23)CC1 [Example 419]	1.69
CCC(c1ccc(F)cc1)N1CCN(c2c(C#N)c(=O)n(C)c3ccc(Br)nc23)CC1 (single isomer, unassigned) [Example 27]	-0.96
C#CCn1c(=O)c(C#N)c(N2CCN(Cc3ccc(F)cc3O)CC2)c2nc(Br)ccc21 [Example 67]	0.68
CCn1ccc2c(CN3CCN(c4c(C#N)c(=O)n(C)c5cccnc45)CC3)cccc21 [Example 334]	0.23
C#CCn1c(=O)c([N+](=O)[O-])c(N2CCN(C(c3ccc(F)cc3)c3ccc(F)cc3OC)CC2)c2nc(C#N)ccc21 (single isomer, unassigned) [Example 128]	1.26
Cn1c(=O)c(C#N)c(N2CCN(Cc3ccc(Br)cc3O)CC2)c2nc(C#N)ccc21 [Example 263]	-0.66
Cn1c(=O)c(C#N)c(N2CCN(Cc3cc(O)cc(F)c3)CC2)c2nc(Cl)ccc21 [Example 338]	0.71

Numbers sourced from patent US11866430B2.
